Reference source for all entries: patent US8343475B2

Tested on: ESBL E. cloacae
Assay type: cell-based, Enterobacter cloacae
Residues, ends and D or L forms follow the SMILES beside them.
// reported MIC per item
ENDPOINT: MIC (µM)

{"MOLECULE": "CC[C@H](C)[C@H](NC(=O)[C@H](Cc1c[nH]c2ccccc12)NC(=O)[C@H](CCCCN)NC(=O)[C@H](Cc1c[nH]c2ccccc12)NC(=O)[C@H](Cc1c[nH]c2ccccc12)NC(=O)[C@H](CCCNC(=N)N)NC(=O)[C@@H](N)CCCCN)C(=O)N[C@@H](CCCNC(=N)N)C(=O)N[C@@H](Cc1c[nH]c2ccccc12)C(N)=O [HHC10, KRWWKWIRW] (H-KRWWKWIRW-NH2; N-terminus assumed)", "UNIT_ANNOTATION": "µM", "QUALIFIER_SYMBOL": "=", "ASSAY_VALUE": 3}
{"MOLECULE": "CC[C@H](C)[C@H](NC(=O)[C@H](CC(N)=O)NC(=O)[C@H](CCCCN)NC(=O)[C@H](Cc1ccccc1)NC(=O)[C@H](CCCNC(=N)N)NC(=O)[C@H](Cc1c[nH]c2ccccc12)NC(=O)[C@H](C)N)C(=O)N[C@@H](CCCNC(=N)N)C(=O)N[C@@H](CCCCN)C(N)=O [HHC126, AWRFKNIRK] (H-AWRFKNIRK-NH2; N-terminus assumed)", "UNIT_ANNOTATION": "µM", "QUALIFIER_SYMBOL": ">", "ASSAY_VALUE": 223}
{"MOLECULE": "N=C(N)NCCC[C@H](NC(=O)[C@H](Cc1c[nH]c2ccccc12)NC(=O)[C@H](CCCCN)NC(=O)[C@H](CCCCN)NC(=O)[C@H](Cc1c[nH]c2ccccc12)NC(=O)[C@H](Cc1c[nH]c2ccccc12)NC(=O)[C@H](CCCNC(=N)N)NC(=O)[C@H](CCCCN)NC(=O)[C@@H](N)Cc1c[nH]c2ccccc12)C(N)=O [HHC45, WKRWWKKWR] (H-WKRWWKKWR-NH2; N-terminus assumed)", "UNIT_ANNOTATION": "µM", "QUALIFIER_SYMBOL": "=", "ASSAY_VALUE": 93}
{"MOLECULE": "CC[C@H](C)[C@H](NC(=O)[C@H](Cc1ccccc1)NC(=O)[C@H](CCCCN)NC(=O)[C@H](Cc1ccccc1)NC(=O)[C@H](CCCNC(=N)N)NC(=O)[C@@H](N)CCCNC(=N)N)C(=O)N[C@@H](CCCNC(=N)N)C(=O)N[C@@H](Cc1c[nH]c2ccccc12)C(=O)N[C@@H](Cc1c[nH]c2ccccc12)C(N)=O [HHC100, RRFKFIRWW] (H-RRFKFIRWW-NH2; N-terminus assumed)", "UNIT_ANNOTATION": "µM", "QUALIFIER_SYMBOL": "=", "ASSAY_VALUE": 12}
{"MOLECULE": "CC(C)C[C@H](NC(=O)[C@H](Cc1c[nH]c2ccccc12)NC(=O)[C@H](Cc1c[nH]c2ccccc12)NC(=O)[C@H](CCCCN)NC(=O)[C@H](Cc1c[nH]c2ccccc12)NC(=O)[C@H](CCCNC(=N)N)NC(=O)[C@H](CCCNC(=N)N)NC(=O)[C@H](Cc1c[nH]c2ccccc12)NC(=O)[C@@H](N)CCCNC(=N)N)C(N)=O [HHC9, RWRRWKWWL] (H-RWRRWKWWL-NH2; N-terminus assumed)", "UNIT_ANNOTATION": "µM", "QUALIFIER_SYMBOL": "=", "ASSAY_VALUE": 6}
